- MEASUREMENT_NOTES: CNS penetration: total and unbound drug concentrations in tumor regions, CSF and plasma (LC-MS/MS, equilibrium dialysis)
- CONDITION_PARAMETERS: human, enhancing tumor, oral, Total everolimus, MED, 10 mg QD 5 days
OBSERVED_PROPERTY: concentration at 5 days (nM)
# number only, unit nM dropped from output

INPUT: Report concentration at 5 days for "CO[C@H]1C[C@@H]2CC[C@@H](C)[C@@](O)(O2)C(=O)C(=O)N2CCCC[C@H]2C(=O)O[C@H]([C@H](C)C[C@@H]2CC[C@@H](OCCO)[C@H](OC)C2)CC(=O)[C@H](C)/C=C(\C)[C@@H](O)[C@@H](OC)C(=O)[C@H](C)C[C@H](C)/C=C/C=C/C=C/1C" please.
OUTPUT: 44

---

- MEASUREMENT_NOTES: Plasma pharmacokinetic parameters (LC-MS/MS)
- CONDITION_PARAMETERS: human, plasma, oral, 600 mg, Total Ribociclib AUClast, Mean
OBSERVED_PROPERTY: AUC(0-t)

INPUT: Report AUC(0-t) for "CN(C)C(=O)c1cc2cnc(Nc3ccc(N4CCNCC4)cn3)nc2n1C1CCCC1" please.
OUTPUT: 28.4 µM·h

---

- MEASUREMENT_NOTES: Plasma pharmacokinetic parameters (LC-MS/MS)
- CONDITION_PARAMETERS: human, plasma, oral, 50 mg, Tmax, total everolimus plasma; mean
OBSERVED_PROPERTY: Tmax (h)
# number only, unit h dropped from output

INPUT: Report Tmax for "CO[C@H]1C[C@@H]2CC[C@@H](C)[C@@](O)(O2)C(=O)C(=O)N2CCCC[C@H]2C(=O)O[C@H]([C@H](C)C[C@@H]2CC[C@@H](OCCO)[C@H](OC)C2)CC(=O)[C@H](C)/C=C(\C)[C@@H](O)[C@@H](OC)C(=O)[C@H](C)C[C@H](C)/C=C/C=C/C=C/1C" please.
OUTPUT: 1.31

---

- MEASUREMENT_NOTES: Plasma pharmacokinetic parameters (LC-MS/MS)
- CONDITION_PARAMETERS: human, plasma, oral, 5 mg, AUClast, total everolimus plasma; mean
OBSERVED_PROPERTY: AUC(0-t) (µM·h)
# number only, unit µM·h dropped from output

INPUT: Report AUC(0-t) for "CO[C@H]1C[C@@H]2CC[C@@H](C)[C@@](O)(O2)C(=O)C(=O)N2CCCC[C@H]2C(=O)O[C@H]([C@H](C)C[C@@H]2CC[C@@H](OCCO)[C@H](OC)C2)CC(=O)[C@H](C)/C=C(\C)[C@@H](O)[C@@H](OC)C(=O)[C@H](C)C[C@H](C)/C=C/C=C/C=C/1C" please.
OUTPUT: 0.43

---

- MEASUREMENT_NOTES: Plasma pharmacokinetic parameters (LC-MS/MS)
- CONDITION_PARAMETERS: human, plasma, oral, 400 mg, Total Ribociclib AUClast, Median
OBSERVED_PROPERTY: AUC(0-t) (µM·h)
# number only, unit µM·h dropped from output

INPUT: Report AUC(0-t) for "CN(C)C(=O)c1cc2cnc(Nc3ccc(N4CCNCC4)cn3)nc2n1C1CCCC1" please.
OUTPUT: 13.8

---

- MEASUREMENT_NOTES: CNS penetration: total and unbound drug concentrations in tumor regions, CSF and plasma (LC-MS/MS, equilibrium dialysis);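 note: drug levels in patient tumor tissue from contrast-enhancing and non-enhancing regions sampled under MRI-guided neuronavigation, with plasma and CSF drawn during surgical resection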
- CONDITION_PARAMETERS: human, non-enhancing tumor / plasma, oral, 600 mg
OBSERVED_PROPERTY: Kp at 120 h
Give the figure only, with no unit attached.

INPUT: Report Kp at 120 h for CN(C)C(=O)c1cc2cnc(Nc3ccc(N4CCNCC4)cn3)nc2n1C1CCCC1 [Ribociclib, ribociclib] please.
OUTPUT: 8.8
